Where these numbers come from: patent US20120282637A1

# target: T1, sRAGE (V-C1-C2) lot LP08062 (human, UniProt Q15109 23-331, limits assumed)
# T1 construct: domain: V-C1-C2; also called Human RAGE; LP08062 (Rage)
# T1 sequence (Q15109 23-331 limits assumed): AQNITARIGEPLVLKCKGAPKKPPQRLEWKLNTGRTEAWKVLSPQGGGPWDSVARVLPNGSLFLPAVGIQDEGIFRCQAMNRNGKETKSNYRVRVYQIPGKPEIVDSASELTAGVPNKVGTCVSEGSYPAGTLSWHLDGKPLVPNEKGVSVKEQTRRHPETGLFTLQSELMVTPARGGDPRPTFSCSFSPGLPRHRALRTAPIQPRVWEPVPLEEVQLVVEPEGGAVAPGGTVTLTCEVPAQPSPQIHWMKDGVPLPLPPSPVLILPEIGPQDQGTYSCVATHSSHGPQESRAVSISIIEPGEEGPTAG
# assay.method.text: SPR (Biacore), mAb captured on anti-mouse Fc, sRAGE 15 nM, Langmuir 1:1
reported.metric: koff
Record the result as a number with its unit.

Look over these answered cases.
binder	experimental.result
283 RAGE-1 (antibody, V domains shown, Anti-RAGE monoclonal antibody from a hybridoma, captured by anti-mouse Fc; also called Protein 283 RAGE-1) VH: QVQLQQSGAELVRPGTSVKVSCKASGYAFTNYLIEWVKQRPGQGLEWIGVINPGSGGTNYSERFKGKATLTADKSSSTAYMQLSSLTSDDSAVYFCASYRYDGGMDYWGQGTSVTVSS VL: QAVVTQESALTTSPGETVTLTCRSSTGAVTTSNYANWVQEKPDHLFTGLIRGTNNRAPGVPARFSGSLIGDKAALTITGAQTEDEAIYFCALWYSNHWVFGGGTKLTVL	0.00196 s⁻¹
95 RAGE-1 (antibody, V domains shown, Anti-RAGE monoclonal antibody from a hybridoma, captured by anti-mouse Fc; also called Protein 95 RAGE-1) VH: QVQLQQPGAELVKPGASVKLSCKASGYTFTSYWMHWVKQRPGQGLEWIGESNPSNGRTNYNEKFKNKATLTVDKSSSTAYMQLSSLTSEDSAVYYCARAPYYGFDYWGQGTTLTVSS VL: QAVVTQESALTTSPGETVTLTCRSSTGAVTTSNYANWVQEKPDHLFTGLTGGTNNRAPGVPARFSGSLIGDKAALTITGAQTEDEAIYFCALWYSNHWVFGGGTKLTVL	0.00123 s⁻¹
259 RAGE-1 (antibody, V domains shown, Anti-RAGE monoclonal antibody from a hybridoma, captured by anti-mouse Fc; also called Protein 259 RAGE -1) VH: QVQLQQSGAELVRPGTSVKVSCKASGYAFTNYLIDWVNQRPGQGLEWIGVINPGSGGTNYNEKFTGKATLTADKSSSTAYMQLSSLTSDDSAVYFCARRRVDTMDYWGQGTSVTVSS VL: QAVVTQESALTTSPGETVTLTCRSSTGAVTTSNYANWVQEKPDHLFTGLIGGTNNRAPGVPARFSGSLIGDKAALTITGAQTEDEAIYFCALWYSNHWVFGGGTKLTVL	0.00224 s⁻¹
184 RAGE-1 (antibody, V domains shown, Anti-RAGE monoclonal antibody from a hybridoma, captured by anti-mouse Fc; also called Protein 184 RAGE-1) VH: QVQLQQSGAELVRPGTSVKVSCKASGYAFTNYLIEWVKQRPGQGLEWIGMINPGSGGTNYNEKFKGKATLTADKSSSTAYMQLSSLTSDDSAVYFCARGRGGHYRYFDVWGAGTTVTVSS VL: DIVLTQSPASLAVSLGQRATISCRASKSVSTSGYSYMHWYQQKPGQPPKLLIYLASHLESGVPARFSGSGSGTDFSLNIHPVEEEDAATYYCQHSRELPWTFGGGTKLEIK	0.00163 s⁻¹
152 RAGE-1 (antibody, V domains shown, Anti-RAGE monoclonal antibody from a hybridoma, captured by anti-mouse Fc; also called LP08104; Protein 152 RAGE-1) VH: DVQLQESGPDLVKPSQSLSLTCTVTGYSITSGYSWHWIRQFPGNKLEWMGYIHYSGSTNYNPSLKSRISITRDTSKNQFFLQLNSVTTEDTATYYCARGGDFAYWGQGTLVTVSA VL: DIVLTQSPASLAVSLGQRATISCRASKSVGTSDSSYMHWYQQKPGQPPKLLIYLASNLESGVPARFSGSGSGTDFTLNIHPVEEEDAATYYCQHSRELYTFGGGTKLEIK	0.00265 s⁻¹

GET /value?item= 250 RAGE-1 (antibody, V domains shown, Anti-RAGE monoclonal antibody from a hybridoma, captured by anti-mouse Fc; also called Protein 250 RAGE-1) VH: EVKLEESGGGLVQPGGSMKLSCVASGFTFSNYWMNWVRQSPEKGLEWVAEIRLKSNNYATHYAESVKGRFTISRDDSKSSVYLQMNNLRAEDTGIYFCIRDYGNYAMDYWGQGTSVTVSS VL: DIVMTQSQKFMSTSVGDRVSVTCKASQNVGTNVAWYQQKPGQSPKALIYSASYRYSGVPDRFTGSGSGTDFTLTISNVQSEDLAEFFCQQYNSYPLTFGAGTKLELK &field=koff returns 0.00199 s⁻¹

GET /value?item= 240 RAGE-1 (antibody, V domains shown, Anti-RAGE monoclonal antibody from a hybridoma, captured by anti-mouse Fc; also called LP08108) VH: QIQLVQSGPELKKPGETVKISCKASGYTFTDYSMHWVKQAPGKGLKWMGWINTETGEPTYADDFKGRFAFSLETSASTAYLQINNLKNEDTATYFCARDYLYYYAMDYWGQGTSVTVSS VL: DVVLTQTPLSLPVSIGDQASISCKSTKSLLNSDGFTYLDWYLQKPGQSPQLLIYLVSNRFSGVPDSFSGSGSGTDFTLKISRVEAEDLGVYYCFQSNYFPLTFGGGTTLEIK &field=koff returns 0.000769 s⁻¹

GET /value?item= 140 RAGE-1 (antibody, V domains shown, Anti-RAGE monoclonal antibody from a hybridoma, captured by anti-mouse Fc; also called Protein 140 RAGE-1) VH: QVQLQQPGAELVKPGASVRLSCKASGYTFTSYWMHWVKQRPGQGLEWIGEINPSNGRTNYNEKFKSKATLTVDKSSSTAYMQLSSLTSEDSAVYYCARDGLGYRPIAMDYWGQGTSVTVSS VL: QIVLTQSPAIMSASPGEKVTISCSASSSVSYMYWYQQKPGSSPKPWIYRTSNLASGVPARFSGSGSGTSYSLTISSMEAEDAATYYCQQYHSYPPMYTFGGGTKLEIK &field=koff returns 0.00157 s⁻¹

GET /value?item= 166 RAGE-1 (antibody, V domains shown, Anti-RAGE monoclonal antibody from a hybridoma, captured by anti-mouse Fc; also called LP08122; LP08122D) VH: QVQLQQSGPELVKPGTSVRISCKASGYTFTSYYIHWVKQRPGQGLEWIGWIYPGNVITNYHEKFKGKASLTADKSSSTAYMQLSSLTSEDSAVYFCAREDPFAYWGQGTLVTVSA VL: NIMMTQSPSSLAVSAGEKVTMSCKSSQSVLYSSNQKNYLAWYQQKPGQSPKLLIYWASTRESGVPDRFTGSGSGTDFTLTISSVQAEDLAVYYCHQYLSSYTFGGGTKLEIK &field=koff returns 0.000758 s⁻¹

GET /value?item= 173 RAGE-1 (antibody, V domains shown, Anti-RAGE monoclonal antibody from a hybridoma, captured by anti-mouse Fc; also called LP08107) VH: EVKLEESGGGLVQPGGSMKLSCVASGFTFSNYWMNWVRQSPEKGLEWVAEIRLKSNNYATHYAESVKGRFTISRDDSKSSVYLQMNDLRAEDPGIYYCIRDYGNYAMDHWGQGTSVTVSS VL: DIVMTQSQKFMSTSVGDRVSVTCKASQNVGTNVAWYQQKPGQSPKALIYSASYRYSGVPDRFTGSGSGTDFTLTISNVQSEDLAEYFCQQYNSYPLTFGAGTKLELK &field=koff returns 0.00227 s⁻¹

GET /value?item= 158 RAGE-1 (antibody, V domains shown, Anti-RAGE monoclonal antibody from a hybridoma, captured by anti-mouse Fc; also called LP08105) VH: QIQLVQSGPELKKPGETVKISCKASGYTFTDYSMHWVKQAPGKGLKWMGWINTETGEPTYADDFKGRFAFSLETSASTAYLLINNLKTEDTATYFCARDYLYYYAMDYWGQGTSVTVSS VL: DVVLTQTPLSLPVNIGDQASISCKSTKSLLNSDGFTYLDWYLQKPGQSPQLLIYLVSNRFSGVPDRFSGSGSGTDFTLKISRVEAEDLGVYYCFQSNYLPLTFGGGTKVEIK &field=koff returns 0.00253 s⁻¹
